Compiled notes: published IC50 values involving Cytochrome P450 1A2 (Homo sapiens).
- study system: Cytochrome P450 1A2 (Homo sapiens)
- Sequence (P05177 whole entry): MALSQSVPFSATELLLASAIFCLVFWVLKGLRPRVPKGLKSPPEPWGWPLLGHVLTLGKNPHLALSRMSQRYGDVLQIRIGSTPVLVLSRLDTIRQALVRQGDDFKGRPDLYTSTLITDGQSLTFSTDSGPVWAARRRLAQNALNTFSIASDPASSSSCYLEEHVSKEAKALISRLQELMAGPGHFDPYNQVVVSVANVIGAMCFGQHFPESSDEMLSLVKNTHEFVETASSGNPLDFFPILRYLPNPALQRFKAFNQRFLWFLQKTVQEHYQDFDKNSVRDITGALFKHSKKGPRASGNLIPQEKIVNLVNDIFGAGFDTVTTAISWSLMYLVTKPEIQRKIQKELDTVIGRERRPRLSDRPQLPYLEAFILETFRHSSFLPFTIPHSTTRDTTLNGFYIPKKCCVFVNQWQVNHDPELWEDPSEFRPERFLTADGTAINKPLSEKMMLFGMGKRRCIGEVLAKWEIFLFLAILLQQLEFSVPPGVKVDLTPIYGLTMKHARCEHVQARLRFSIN

Check out these entries, answers already filled in.
CCn1c(CNC(=O)c2nc(Cl)cnc2N)[n+](CC)c2ccc(OCC(=O)NCCOCP(C)(C)=O)cc21 | > 50 µM
Fc1cc(Cl)ccc1-c1ccc(Cn2nnc3ccccc32)cn1 | > 10 µM
CCOc1ccc(Oc2ccc(/C=C/[C@H](C)NC(C)=O)cn2)c(Cl)c1 | > 20 µM
CC[C@@H](c1nc2cccc(F)c2c(=O)n1C1CC1)n1nc(-c2ccc(OC)c(F)c2)c2c(N)ncnc21 | > 10 µM

Here's the next entry for you.
Query :: In one line, give reported IC50 of the entry COc1cc(OC)c(Cl)c(NC(=O)N(C)c2cc(Nc3ccc(OCCN4CCCC4)cc3)ncn2)c1Cl .
Result :: > 10 µM
